# Tested on: parasite
# experimentSummary: Parasite LDH growth assay (Parasite Assay), antiparasite potency
# Format: cell-based
# conditionSummary: parasite LDH growth assay, ring stage parasites, 72 hours incubation at 37° C.; read-out: EC50
propertyMeasured: pEC50
pEC50 here: minus log base 10 of the concentration, concentration in moles per litre.

Challenge: Report pEC50 for CCC1(CC)CC(=O)N([C@@H]2CC(COC)Oc3ccc(C(=O)N[C@H]4CC(C)(C)Oc5ccccc54)cc32)C(=N)N1 (stereo partly drawn) [Example 16A] please.
Response given: 9.22

Challenge: GET /values?readout=pEC50&item= CCC1(CC)CC(=O)N(C2c3cc(C(=O)N[C@@H]4c5ccccc5OC(C)(C)[C@H]4O)ccc3CC2OC)C(=N)N1 (single isomer, unassigned) [Example 251A]
Response given: 9.40

Challenge: Quick one: pEC50 of CCC1C[C@@H](N2C(=N)NC(CC)(CC)CC2=O)c2cc(C(=O)N[C@@H]3c4ccccc4C[C@H]3O)ccc2O1 (stereo partly drawn) ?
Response given: 9.05

Challenge: GET /values?readout=pEC50&item= CCC1(CC)CC(=O)N([C@@H]2CCOc3ccc(C(=O)NC4c5cc(F)ccc5OCC4(C)O)cc32)C(=N)N1 (stereo partly drawn) [Example 226D]
Response given: 9.00

Challenge: pEC50 lookup needed for CCC1(CC)CC(=O)N([C@H]2c3cc(C(=O)N[C@@H]4c5ccccc5OC(C)(C)[C@H]4O)ccc3OC2(C)COC)C(=N)N1 (stereo partly drawn) [Example 73A] , thanks.
Response given: 9.52

Challenge: I would be grateful if you could share the reported pEC50 for CCC1(CC)CC(=O)N([C@@H]2CCOc3ccc(C(=O)NC4c5ccccc5OC4(C)COC)cc32)C(=N)N1 (stereo partly drawn) [Example 64B] .
Response given: 9.05
